tested on: E. coli BW25113 ΔtolC growth inhibition, OD615; experiment: growth inhibitors of E. coli tolC mutant, dose response, strain BW25113 ΔtolC::kan (AID 617);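 note: growth read after 20 h at 37 °C with compound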
IC50 values by entry
Measured Quantity: IC50

1. Cc1cc(C)cc(-n2ccnc2SCC(=O)Nc2ccc3c(c2)OCCO3)c1 : 28.1 µM
2. CCCc1cc(C(=O)Nc2cccc(Cl)c2)no1 : 14.6 µM
3. COc1ccccc1C1CC(c2ccc(Cl)cc2)Nc2ncnn21 (stereo unspecified) : 15.1 µM
4. O=S(=O)(Nc1nnc(-c2ccccc2)s1)c1ccc(Cl)cc1 : 3.74 µM
5. Brc1ccc(CSc2nnc(-c3cnccn3)n2Cc2ccco2)cc1 : 63.4 µM
6. c1ccc2oc(SCc3nc4ccccc4s3)nc2c1 : 29.1 µM
7. COC(=O)C1=C(C)N(C)C(C)=C(C(=O)OC)C1c1ccc(F)c(Br)c1 : 20 µM
8. CC1=C(C#N)c2nc(N)c(C#N)c(C)c2/C1=C\c1ccccc1 : 3.05 µM
9. CCCCc1c(C)nn(-c2nnc3c4ccccc4n(CC)c3n2)c1C : 1.77 µM
10. CCOC(=O)C1Cn2c(nc3c(c2=O)C(C)(CC)Cc2ccccc2-3)S1 (stereo unspecified) : 24.2 µM
11. Cc1cc(C)nc(-n2nc(C)cc2Nc2ccccc2)n1 : 2.65 µM
12. Cc1nn(-c2nc3ccccc3n2Cc2ccccc2)c2c1C(=O)CC(C)(C)C2 : 8.51 µM
13. CCOC(=O)c1cnc(-n2cc(C)cn2)nc1Nc1ccccc1OCC : 16 µM
14. C=CCN(CC=C)S(=O)(=O)c1ccc2nc(NC(=O)C(C)C)sc2c1 : 6.66 µM
15. CCCN(CCC)c1nc(NC2CCN(C(=O)OCC)CC2)nc(OC)n1 : 12.4 µM
16. Cc1ccc2c(c1)[nH]c1c(N3CCN(Cc4ccccc4)CC3)ncnc12 : 39.1 µM

###

IC50 values by entry
tested on: E. coli BW25113 ΔtolC growth inhibition, OD615; experiment: growth inhibitors of E. coli tolC mutant, dose response, strain BW25113 ΔtolC::kan (AID 617);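 note: growth read after 20 h at 37 °C with compound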
Measured Quantity: IC50

1) COC(=O)c1c(NC(=O)CCc2ccc(C)o2)sc(C)c1C : 26.8 µM
2) COc1ccccc1-c1cc(C(=O)N2CCN(c3ccccc3OC)CC2)no1 : 17.9 µM
3) Cc1nn(Cc2ccccc2)c(C)c1C(=O)OCC(=O)c1cc(C)n(C2CC2)c1C : 11.3 µM
4) Cc1onc(-c2ccccc2)c1C(=O)Nc1nnc(COc2ccc(Cl)cc2)s1 : 2.99 µM
5) Clc1ccc(C(c2nnnn2C2CCCCC2)N(Cc2cccnc2)Cc2ccco2)cc1 (stereo not given) : 14.8 µM
6) CC(=O)Nc1cccc(NC(=O)c2oc3ccccc3c2C)c1 : 8.33 µM
7) c1coc(CNc2nc(N3CCCCC3)nc3ccccc23)c1 : 16.9 µM
8) CCOc1cc(-c2c(C#N)c(N)nc3c2CCCC3C)ccc1O (stereo not given) : 6.26 µM
9) O=C(CN1CCN(S(=O)(=O)c2ccc(F)cc2)CC1)Nc1ccc(Cl)c(C(F)(F)F)c1 : 9.07 µM
10) c1ccc(-c2nc(CSc3nnc(-c4cccs4)o3)cs2)cc1 : 10.1 µM
11) Cn1ncc(C#N)c1/N=C/N(Cc1ccccc1)Cc1ccccc1 : 7.5 µM
12) O=C(Nc1ccc(Cl)cc1)N(Cc1cccs1)Cc1cccs1 : 10.7 µM
13) Cc1cccc(N2CC(c3nc4ccccc4n3C)CC2=O)c1C (stereo not given) : 4.93 µM
14) Cc1ccc(C)c(C(=O)CSc2n[nH]c(-c3ccncc3)n2)c1 : 2 µM
15) Clc1ccc(Nc2nc(-c3cccs3)cs2)nc1 : 80.2 µM
16) CCOc1ccc(N(CC(=O)Nc2cccc(OC)c2)S(=O)(=O)c2c(C)noc2C)cc1 : 22.8 µM
17) COc1ccccc1N1CCN(Cc2nc(N)nc(Nc3ccc(C)c(Cl)c3)n2)CC1 : 9.02 µM
18) Oc1c(CN2CCc3ccccc3C2)cc(Cl)c2cccnc12 : 8.71 µM
19) Cc1cccc(-c2noc(CN(C(=O)c3ccc(Br)o3)C(C)C)n2)c1 : 11.8 µM
20) O=C(Nc1nc2ccccc2n1CCOc1ccc(Cl)cc1)c1ccco1 : 25.2 µM
21) Cc1csc(NC(=O)C2CCCN(S(=O)(=O)c3ccc(Br)s3)C2)n1 (stereo not given) : 12.2 µM
22) Clc1ccc2nc(CN3CCCc4ccccc43)cn2c1 : 25.8 µM
23) CC1CCc2c(C(=O)Oc3cccc(-n4cnnn4)c3)csc2C1 (stereo not given) : 20.2 µM
24) CCCCc1ccc(Nc2nc(CCC)cc(=O)[nH]2)cc1 : 14.9 µM
25) c1ccc(-c2csc(N3CCN(c4ccccn4)CC3)n2)cc1 : 8.99 µM
26) CC(C)(C)OC(=O)N1CCC[C@H]1c1nnc(SCc2ccc(Cl)cc2Cl)o1 : 11 µM
27) CCCc1ccc(OCc2ccc(C(=O)N3CCN(c4ccccn4)CC3)o2)c(OC)c1 : 7.15 µM
28) CCCCOC(=O)Nc1cc(C(=O)OC)ccc1C(=O)OC : 26.8 µM
29) O=c1n(Cc2ccccc2)c2cc(Cl)cnc2n1Cc1ccccc1 : 10.2 µM
30) O=C(CCc1nc(-c2ccccc2F)no1)Nc1ccc(Oc2ccccc2)cc1 : 9.55 µM
31) N#Cc1cn(Cc2ccccc2)c2ccccc12 : 15.3 µM
32) Cc1nn(-c2ccc(F)cc2)c2sc(C(=O)N3CCCCCC3)cc12 : 20.2 µM
33) Cc1nn(-c2ccccc2)c(Cl)c1C1C(C#N)=C(N)Oc2c1c(=O)oc1ccccc21 (stereo not given) : 12 µM
34) CCC(Sc1nnc(-c2ccc(C)c(Cl)c2)n1CC)C(=O)Nc1nccs1 (stereo not given) : 14.9 µM
35) CC(C)OCCCNc1ncnc2c1[nH]c1ccc(F)cc12 : 7.21 µM

Hey, just so you know, these numbers are from PubChem BioAssay AID617.
